Test system: subgenomic genotype 1a replicon cell line
ASSAY: HCV replicon assay, genotype 1a
Type: cell-based, HCV genotype 1a
RUN CONDITIONS: Hepatitis C virus
Listed here: items and their measured pEC50.
// pEC50 here means minus log10 of the molar concentration (mol/L)

The examples below pair each entry with its known result.
TEST SMILES	TARGET	pEC50
CNC(=O)c1c2cc(C3CC3)c(N(CCN3CCOCC3)S(C)(=O)=O)cc2nn1-c1ccc(Oc2ccc(F)cc2)cc1	subgenomic genotype 1a replicon cell line	5.72
CNC(=O)c1c2cc(C3CC3)c(N(CCCN3CCOCC3)S(C)(=O)=O)cc2nn1-c1ccc(Br)cc1	subgenomic genotype 1a replicon cell line	6.19
CCN(c1cc2nn(-c3ccc(NCC(C)C)cc3)c(C(=O)NC)c2cc1C1CC1)S(C)(=O)=O	subgenomic genotype 1a replicon cell line	6.47
CNC(=O)c1c2cc(C3CC3)c(N(CCCNC(=O)C(F)(F)F)S(C)(=O)=O)cc2nn1-c1ccc(Br)cc1	subgenomic genotype 1a replicon cell line	7.22
CCN(c1cc2nn(-c3ccc(Nc4ccc(F)cc4)cc3)c(C(=O)NC)c2cc1C1CC1)S(C)(=O)=O	subgenomic genotype 1a replicon cell line	6.42

Ask | For CNC(=O)c1c2cc(C3CC3)c(N(CCCNC(=O)c3ccoc3)S(C)(=O)=O)cc2nn1-c1ccc(Nc2ccc(F)cc2)cc1 , what is its reported pEC50?
Reply | 5.43

Ask | Entry CNC(=O)c1c2cc(C3CC3)c(N(CCCNC(=O)c3ccnc(OC)c3)S(C)(=O)=O)cc2nn1-c1ccc(Br)cc1 please
Reply | 6.96
